B1: HDV Ribozyme (parent)
chain: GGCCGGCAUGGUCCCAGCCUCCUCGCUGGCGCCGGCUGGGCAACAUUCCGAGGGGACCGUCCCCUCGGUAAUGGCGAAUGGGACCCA

Variants of: B1
experiment_description: self-cleavage, relative activity (ratio to wild type); higher = more cleavage; co-transcriptional
Param threshold (0.1) applies to self-cleavage; output TRUE when value >= threshold, FALSE when value < threshold.

seq: GGCCGGCAUCGUCCCAGCCUCCUCGCUGGCGCCGGCUGGGCAACAUUCCGAGGGGACCGUCCACUCGGUAAUGGCGAAUGGGACCCA [G10C C63A]
assigned_class: TRUE
//
seq: GGCCGGCAUGGUGCCAGCCUCCUCGCUGGCGCCGGCUGGGCAACAUUCCGAGGGGACCGUUCCCUCGGUAAUGGCGAAUGGGACCCA [C13G C61U]
assigned_class: TRUE
//
seq: GGCCGGCAUGGUCCCAGCCUCCUCGCUGGCGCCGGCUGGGCAACAUUCCGAUGGGACCGGCCCCUCGGUAAUGGCGAAUGGGACCCA [G52U U60G]
assigned_class: TRUE
//
seq: GGCCGGCAUGGUCCCAGCCUCCUCGCUGUCGCCGGCUGGGCAACAUUCCGAGGGGACCGUCCCCUCGUUAAUGGCGAAUGGGACCCA [G29U G68U]
assigned_class: TRUE
//
seq: GGCCGGCAUGGUCCCAGCCUCCUCGCUGCCCCCGGCUGGGCAACAUUCCGAGGGGACCGUCCCCUCGGUAAUGGCGAAUGGGACCCA [G29C G31C]
assigned_class: FALSE
//
seq: GGCCCGCAUGGUCCCAGCCUCCUCGCUGGCGCCGGCUGGGCAACAUACCGAGGGGACCGUCCCCUCGGUAAUGGCGAAUGGGACCCA [G5C U47A]
assigned_class: TRUE
//
seq: GGCCGGCAUGGUCCCAGCCUGCUCGCUGGCGCCGGCUGGGCAACAUUCCGAGGGGACCGUCCCCUCUGUAAUGGCGAAUGGGACCCA [C21G G67U]
assigned_class: FALSE
//
seq: GGCCGGCAUGGUCCCAGCCUCCUCGCUGGCGCCGACUGGGCAACAUUCCGAGGGGACCGUCCCCUCGGUAAUGGCGAAUGGGCCCCA [G35A A83C]
assigned_class: FALSE
//
seq: GGCCGGCAUGGUCCCAGCCUCCUCGCUGGCGCCGGCGGGGCAACAUUCAGAGGGGACCGUCCCCUCGGUAAUGGCGAAUGGGACCCA [U37G C49A]
assigned_class: FALSE
//
seq: GGCCGGCAUGGUCCCAGCCUCCUCGCUGGCCCCGGCUGGGCAACAUUCCGAGGGGACCGUCCGCUCGGUAAUGGCGAAUGGGACCCA [G31C C63G]
assigned_class: TRUE
//
seq: GGCCGGCAUGGUCCCAGCCUCCUCGCUGGAGCCGGCUGGGCAACAUUCCGAGGGGACCGUCCCCUCGGUAAUGGCGCAUGGGACCCA [C30A A77C]
assigned_class: FALSE
//
seq: GGCCGUCAUGGUCCCCGCCUCCUCGCUGGCGCCGGCUGGGCAACAUUCCGAGGGGACCGUCCCCUCGGUAAUGGCGAAUGGGACCCA [G6U A16C]
assigned_class: FALSE
//
seq: GGCCGGCAUGGUCCCAGCCUCCCCGCUGGCGCCGGCUGGGCAACAUUCCGAGGGGACCGUCCCCUCGGUAAUUGCGAAUGGGACCCA [U23C G73U]
assigned_class: TRUE
//
seq: GCCCGGCAUGGUCCCAGCCUCCUCGCUGGCGCCGGCUGGGCAACAAUCCGAGGGGACCGUCCCCUCGGUAAUGGCGAAUGGGACCCA [G2C U46A]
assigned_class: FALSE
//
seq: GGCCGGCAGGGUCCCAGCCUCCUCGCUGGCGCCGGCUGGGCAACAUUCCGAGGGGACAGUCCCCUCGGUAAUGGCGAAUGGGACCCA [U9G C58A]
assigned_class: TRUE
//
seq: GGCCGGCAUGGUCCCAGCCUCCUCGCUGGCGCCGGCUGGGCAACAUUCCAGGGGGACCGUCCCCUCGGUAAUGGCGAAUGGGACCCA [G50A A51G]
assigned_class: TRUE
//
seq: GGCAGGCAUGGUCCCAGCCUCCUCGCUGGCGCCGGCUGGGCAACAUUCCGAAGGGACCGUCCCCUCGGUAAUGGCGAAUGGGACCCA [C4A G52A]
assigned_class: TRUE
//
seq: GGCCGGCAUGGUCCCAGCCUCCUCGCUGGCGCCGGCUCGGCAACAGUCCGAGGGGACCGUCCCCUCGGUAAUGGCGAAUGGGACCCA [G38C U46G]
assigned_class: FALSE
//
seq: GGCCGGCAUGGUCCCAGCCUCCUCGCUGGCGCCGGCUGGGCAACAUGCCGAGGGGACCGUCCCCUCGGAAAUGGCGAAUGGGACCCA [U47G U69A]
assigned_class: TRUE
//
seq: GGCCGGCAUGGUCCCAGCGUCCUCGCUGGCGCCGGCUGGGCAACAUUGCGAGGGGACCGUCCCCUCGGUAAUGGCGAAUGGGACCCA [C19G C48G]
assigned_class: TRUE
//
seq: GGCCGGCAUGGUCCCAGCCUCCUCGCUGGCGCCGGCUGGGCGACAUUCCGAGGGGACCGUCCCCUCGGUAAUCGCGAAUGGGACCCA [A42G G73C]
assigned_class: FALSE
//
seq: GGCCGGCAUGGUCCCAGCCUCCUCGCUGGCGCCGGCUGGGCAACAUUCUGAGGGGACCGUCCCCUCGGGAAUGGCGAAUGGGACCCA [C49U U69G]
assigned_class: TRUE
//
seq: GGCCGGCAUGGUCCCAGGCUCCUCGCUGGCGCCGGCUGGGCAACAUUUCGAGGGGACCGUCCCCUCGGUAAUGGCGAAUGGGACCCA [C18G C48U]
assigned_class: FALSE
